testSystem: Calmodulin-1 (Homo sapiens)
assayNotes: calcium-bound CALM1 binders on microarrays, profiling panel, artefact control for SMM control-protein annotation, biochemical, small-molecule microarray, Cy5-labelled CALM1, plus calcium (AID 1112);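 also: score merges spot fluorescence with signal to noise from triplicate slides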
measurementContext: Cy5-CALM1 binding fluorescence, higher = more signal
readoutLabel: composite z-score

Query: So what's the measured composite z-score for this one? COCCOC(=O)N1C(=O)[C@@]2(c3cc(C#CCNC(N)=O)ccc31)[C@H](C(=O)Nc1nc3ccccc3s1)[C@H]1C(=O)O[C@H](c3ccccc3)[C@H](c3ccccc3)N1[C@@H]2c1ccc(OCCO)cc1
Reply: 0.662

Query: Any idea what its composite z-score is? The compound is C=CCNC(=O)[C@@H]1[C@H]2C(=O)O[C@H](c3ccccc3)[C@H](c3ccccc3)N2[C@H](c2ccccc2OCCO)[C@@]12C(=O)N(C(=O)OCCOC)c1ccccc12
Reply: -0.464

Query: If you can, please state the reported composite z-score value of C=CC[C@]1(C(=O)NCc2ccccc2)N=C(c2ccc(OCCCO)cc2)O[C@H]1c1ccccc1N=[N+]=[N-] .
Reply: 0.901

---

assayNotes: MM1S myeloma cell viability, profiling panel, resazurin fluorescence, basal, 24 h, PK04 Diversity Set (AID 1174);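 also: MM1S multiple myeloma cell line; test concentration not given here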
measurementContext: higher = more signal, called active from +8 up or from −8 down
The source made the active and inactive calls.
readoutLabel: z-score

>>> measuredresult("O=C1C[C@@](C(=O)NCCN2CCOCC2)(c2ccc([N+](=O)[O-])cc2)[C@@H](c2ccc(CO)cc2)N1CC12CC3CC(CC(C3)C1)C2")
"-3.17 (inactive)"
>>> measuredresult("O=C1O[C@@H](c2ccccc2)[C@@H](c2ccccc2)N2[C@@H](c3ccccc3OCCO)[C@]3(C(=O)Nc4ccccc43)[C@@H](C(=O)Nc3nc4ccccc4s3)[C@H]12")
"-2.95 (inactive)"
>>> measuredresult("CCOC(=O)C1=C[C@@H](C(C)(C)C)N(S(=O)(=O)c2ccc(C)cc2)[C@H]1c1ccc(F)cc1")
"-0.544 (inactive)"
>>> measuredresult("CC(C)OC(=O)C=C1C[C@@H](c2ccccn2)O[C@@H](c2ccccn2)O1")
"-0.377 (inactive)"
>>> measuredresult("COCCOC(=O)N1C(=O)[C@@]2(c3cc(C#CC4(O)CCCCCC4)ccc31)[C@H](c1ccc(OCCO)cc1)N1[C@H](c3ccccc3)[C@H](c3ccccc3)OC(=O)[C@H]1[C@@H]2C(=O)N1CCN(c2ncccn2)CC1")
"-0.549 (inactive)"
>>> measuredresult("O=C1OCCC/C=C\\[C@H]2OC34C=CCN(Cc5ccccc5)C(=O)[C@H]3N(CCCO)C(=O)[C@@H]4C12 (stereo partly specified)")
"0.794 (inactive)"
>>> measuredresult("CC1CC/C=C\\[C@H]2OC34C=CCN(Cc5ccccc5)C(=O)[C@H]3N(CCCO)C(=O)[C@@H]4C2C(=O)O1 (stereo partly specified)")
"0.0639 (inactive)"
>>> measuredresult("C=CCC(OC(C)=O)[C@@H]1[C@@H](N(Cc2ccc(-c3ccccc3)cc2)C(=O)c2cccc3ccccc23)c2cc(OCCCO)ccc2N1C(=O)c1ccc(-c2ccccc2)cc1 (stereo partly specified)")
"0.395 (inactive)"
>>> measuredresult("COC(=O)C(CC#Cc1ccc2c(c1)[C@]1(C(=O)N2)[C@H](C(=O)Nc2nc3ccccc3s2)[C@H]2C(=O)O[C@H](c3ccccc3)[C@H](c3ccccc3)N2[C@@H]1c1ccc(O)cc1)C(=O)OC")
"0.792 (inactive)"
>>> measuredresult("C=CCOC(=O)[C@H]1[C@@H]2C(=O)O[C@@H](c3ccccc3)[C@@H](c3ccccc3)N2[C@@H](c2ccc(OCCOC(=O)[C@H]3C[C@H]4C(=O)N[C@@H](CCCCN(C)C)C(=O)N4[C@H]3c3ccc(O)cc3)cc2)[C@]12C(=O)Nc1ccc(I)cc12")
"-0.934 (inactive)"

Query: Can you look up the measured z-score of CCC[C@@H]1C[C@@]1(CCC)[C@@H](NC(=O)c1ccccc1)c1cccc(Cl)c1 for me?
Reply: 0.208 (inactive)
